Data origin, for the record: patent US20230263822A1

protocolNotes: Tolerability in CD1 mice: organ weight (Example 33)
Type: in vivo
testConditions: 50 mg/kg s.c. twice a week, 2 weeks, vs PBS control, normalized to body weight

# substance, Percent change in spleen weight
data = [
    ("417002 (antisense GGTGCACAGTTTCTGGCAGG; 2-13-5 gapmer chemistry, further chemistry not given here) [compound 417002]", "+29%"),
    ("416892 (antisense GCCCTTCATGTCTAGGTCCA; 3-14-3 chimeric gapmer, further chemistry not given here) [compound 416892]", "+24%"),
    ("416826 (antisense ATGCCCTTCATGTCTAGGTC; 5-10-5 gapmer, further chemistry not given here) [compound 416826]", "−12%"),
]

###

System: IL-1β, IL-6, IFN-γ, TNF-α, IL-8, MIP-1α, MCP-1, MIP-1β, RANTES
protocolNotes: Cytokine and chemokine assays in cynomolgus monkeys (Example 46)
Type: in vivo
testConditions: day 55
Strand notation (5' to 3'): a small letter for the sugar, then the base; units joined by * are phosphorothioate-linked, units joined directly phosphodiester-linked; [ ] holds rarer units or linkages, { } end groups; capitals alone tell only the bases. e = 2'-O-(2-methoxyethyl) (MOE); [5mC] = 5-methylcytosine; d = 2'-deoxy (DNA)
Reported IL-6 level values follow for various substances

# substance, IL-6 level / pg/mL
rows = [
    ("ISIS 416850: MOE gapmer, nucleobases 1275 to 1318 of SEQ ID NO: 1 (Table 8) (antisense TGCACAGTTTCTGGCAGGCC; MOE gapmer, wing and gap sizes not given here)", 1),
    ("ISIS 416858: MOE gapmer, nucleobases 1275 to 1318 of SEQ ID NO: 1 (Table 8) (antisense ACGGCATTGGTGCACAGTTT; MOE gapmer, wing and gap sizes not given here)", 1),
    ("ISIS 449708: 3-8-3, 4-8-4, 2-10-2, 3-10-3 or 4-10-4 MOE microwalk gapmer (Table 46) (antisense eA*e[5mC]*eA*dG*dT*dT*dT*d[5mC]*dT*dG*dG*e[5mC]*eA*eG)", 0),
    ("ISIS 449711: 3-8-3, 4-8-4, 2-10-2, 3-10-3 or 4-10-4 MOE microwalk gapmer (Table 46) (antisense eA*e[5mC]*dA*dG*dT*dT*dT*d[5mC]*dT*dG*dG*d[5mC]*eA*eG)", 7),
    ("ISIS 449709: 3-8-3, 4-8-4, 2-10-2, 3-10-3 or 4-10-4 MOE microwalk gapmer (Table 46) (antisense eG*e[5mC]*eA*e[5mC]*dA*dG*dT*dT*dT*d[5mC]*dT*dG*dG*d[5mC]*eA*eG*eG*e[5mC])", 0),
    ("ISIS 449710: 3-8-3, 4-8-4, 2-10-2, 3-10-3 or 4-10-4 MOE microwalk gapmer (Table 46) (antisense e[5mC]*eA*e[5mC]*dA*dG*dT*dT*dT*d[5mC]*dT*dG*dG*d[5mC]*eA*eG*eG)", 2),
    ("ISIS 449707: 3-8-3, 4-8-4, 2-10-2, 3-10-3 or 4-10-4 MOE microwalk gapmer (Table 46) (antisense e[5mC]*eA*e[5mC]*eA*dG*dT*dT*dT*d[5mC]*dT*dG*dG*e[5mC]*eA*eG*eG)", 1),
    ("ISIS 445531: 5-8-5 or 6-8-6 MOE microwalk gapmer (Table 44) (antisense eG*eG*e[5mC]*eA*eT*dT*dG*dG*dT*dG*d[5mC]*dA*d[5mC]*eA*eG*eT*eT*eT)", 1),
    ("ISIS 445522: 5-8-5 or 6-8-6 MOE microwalk gapmer (Table 44) (antisense eG*e[5mC]*eA*e[5mC]*eA*dG*dT*dT*dT*d[5mC]*dT*dG*dG*e[5mC]*eA*eG*eG*e[5mC])", 2),
]
